Tested on: VchCAST RNA-guided transposition machinery (E. coli BL21(DE3) host, lacZ target)
procedureDetails: relative integration efficiency (T-RL orientation) vs wild-type transposon end (log2 (normalized fold change)); transposon end mutated: right end (5 bp flank + 75 bp right end); higher = more efficient transposition
Overview of reported relative integration efficiency (log2) across a group of sequences:
Quick one: just the number, no unit, thanks!

# count of solved cases: 2
| primarySequence | relative integration efficiency (log2) |
| --- | --- |
| ACATTTGTTGATAAAACCATAAAATGATTATTACACCCATAAATTGATAATTATCACACCCATAAATTGATATTGCCTCTGATCATAGTCAGACCAACATTGCTACGACCCGTATTCGCACCGACAC | -1.05 |
| ACATTTGTCGATACAACCATAAAACGATAATTACACCCATAAATTCATCATTATCACACCCAATTTAACTATAACGCTCTGATCATAGTCAGACCAACATTGCTACGACCCGTATTCGCACCGACAC | -2.2 |

# input for lookup
Task: What value of relative integration efficiency (log2) has been recorded for this entry: "ACATTTGTTGATACCACCATCAAATGATAATTCCACCCATAAATTGATAATTATCACACCCAATTTAACTATAACGCTCTGATCATAGTCAGACCAACATTGCTACGACCCGTATTCGCACCGACAC"
Result: -2.05

* * *

System: VchCAST RNA-guided transposition machinery (E. coli BL21(DE3) host, lacZ target)
procedureDetails: relative integration efficiency (T-LR orientation) vs wild-type transposon end (log2 (normalized fold change)); transposon end mutated: right end (5 bp flank + 75 bp right end); higher = more efficient transposition
Measured relative integration efficiency (log2) by item
Just the number.

| primarySequence | measuredParameter | numericResult |
| --- | --- | --- |
| ACATTTGTTGATACAACCATAAAATGATAATTACAACCATAAAGTGATATTTATCACAACCATAAGTTGATATTTTCTCTGATCATAGTCAGACCAACATTGCTACGACCCGTATTCGCACCGACAC | relative integration efficiency (log2) | -0.251 |
| ACATTTGTTGATACAACCATAAAATGATAATTAATAATTATTTATAATCAGCCACCCATAAATTGATAATTATCAACAAACGCCCGGTCGCGGTACTCTGATCATAGTCAGACCAACATTGCTACGA | relative integration efficiency (log2) | 1.16 |
| ACATTTGTTGATACAACCATATATTGATATCTCCAACCATAAGTTGATATTTTTCACACCCATAAATTGATATTGCCTCTGATCATAGTCAGACCAACATTGCTACGACCCGTATTCGCACCGACAC | relative integration efficiency (log2) | -0.216 |
| ACATTTGTTGATACAACCATTAAATGGTAATTCCACCCATAAATTGATAATTATCACACCCAATTTAACTATAACGCTCTGATCATAGTCAGACCAACATTGCTACGACCCGTATTCGCACCGACAC | relative integration efficiency (log2) | 2.07 |

Shift focus to the following entry.
Task: Using the record for "ACATTTGTCGATACAACCATAAAATGATAATTACACCCATAAATTGATCATTATCACCCCCAATTTAACTATAACGCTCTGATCATAGTCAGACCAACATTGCTACGACCCGTATTCGCACCGACAC" , report its relative integration efficiency (log2).
Result: 2.13

* * *

Test system: VchCAST RNA-guided transposition machinery (E. coli BL21(DE3) host, lacZ target)
procedureDetails: relative integration efficiency (T-LR orientation) vs wild-type transposon end (log2 (normalized fold change)); transposon end mutated: right end (5 bp flank + 75 bp right end); higher = more efficient transposition
Kind request: treat 0.4 as inclusive, so relative integration efficiency (log2) at 0.4 or higher is fulfilled, anything lower is not fulfilled.

Task: Could you tell me if the measured relative integration efficiency (log2) of "ACATTTGTAAAAAAAACCATACGTTGATTTTACGAAACCATACGCTGAAATAATCACAACCATAACTTGAAATTGCCTCTGATCATAGTCAGACCAACATTGCTACGACCCGTATTCGCACCGACAC" reaches 0.4 or more?
Result: not fulfilled

Task: Moving on to "ACATTTGTTGATACAACCATAAAATGATAATTAATAATTATTTATAATCAGCAACTTAACCACACACCCATAAATTGATAATTATCACACCCATAAATTGATATTGCCTCTGATCATAGTCAGACCA"
Result: not fulfilled

Task: Param item: "ACATTTGTTGATACAACCATAAGTTGATATTTTCAACCATAAAATGATAATTATCACAACCATAAGTTGATATTTTCTCTGATCATAGTCAGACCAACATTGCTACGACCCGTATTCGCACCGACAC"
Result: not fulfilled

Task: And then "ACATTTGTTGATACAACCATAAAATGATAAATACACCCATAAATTGATAATTGTGACACCGAATTTAACTATAACGCTCTGATCATAGTCAGACCAACATTGCTACGACCCGTATTCGCACCGACAC" , what is it?
Result: fulfilled

Task: Another sequence: "ACATTTGTTGATACAACCATAAAAGGATCATTACACCCATCAATTGATAATTATCACACCCCATTTAACTATAACGCTCTGATCATAGTCAGACCAACATTGCTACGACCCGTATTCGCACCGACAC"
Result: not fulfilled

Task: Same question for "ACATTTGTCGATCCAACCATAAAATGATAATTACACCCATAAATTCATAATTATCACACCCAATTTAACTATAACGCTCTGATCATAGTCAGACCAACATTGCTACGACCCGTATTCGCACCGACAC" please.
Result: fulfilled

Task: Check "ACATTTGTTGATACAACCATAAAATGATAATTACACCCATAAATTGATAATTATCACACCCATAAATTGATATTGCCTCTGATAACTTCGTATAATGTATACTATACGAAGTTATTCGCACCGACAC" too.
Result: fulfilled

Task: Same question, "ACATTTGTTGATACAACCATAAAATGATAATTACACCCATAAATTGATAATTATCACACCCATAAATTGATATTGCCTCTGATCATAGTCTGTGATTGTTATCACATTTCAGACCAAGCACCGACAC" this time
Result: not fulfilled

Task: # iterate: "ACATTTGTTGATACAACCATAAAATGATAATTACACCCATAAATTGATAATTATCACAGGCATAAATTGATATTGCCTCTGATCATAGTCAGACCAACATTGCTACGACCCGTATTCGCACCGACAC"
Result: fulfilled

Task: What would you report for "ACATTTGTGGATACAACCATAAAATGATAATTACCACCCCTAAATTGATAATTATCACACCCATTTAACTATAACGCTCTGATCATAGTCAGACCAACATTGCTACGACCCGTATTCGCACCGACAC" ?
Result: not fulfilled

Task: Similarly, "ACATTTGTGGATACAACCATAAAACGATAATTACACCCATAAATTGATAATTATCACACCCAATTTAACTATAACGCTCTGATCATAGTCAGACCAACATTGCTACGACCCGTATTCGCACCGACAC" ?
Result: fulfilled

Task: # repeat for "ACATTTGTTGATACAACCATAAAATGATAATTAATAATTATTTCACCCATAAATTGATAATTATCAACAAACGCCCGGTCGCGGTACTCTGATCATAGTCAGACCAACATTGCTACGACCCGTATTC"
Result: not fulfilled

Task: // next record "ACATTTGTAAAAAAAACCATACGTTGATTTTACGAAACCATACGCTGAAATAAAAACAACCATACCTTGAAATTGCTTATAAAGTGTACAACACTTGAGAAAGTTTACTACAGGTATGCACCGACAC"
Result: not fulfilled

Task: Next sequence: "ACATTTGTTGATACAACCATAAAATGATAATTACTCTGATCATAGTCAGACCAACATTGCTACCACCCATAAATTGATAATTATCACACCCATAAATTGATATTGCGACCCGTATTCGCACCGACAC"
Result: not fulfilled

Task: What do you have for "TATAATGTTGATACAACCATAAAATGATAATTACACCCATAAATTGATAATTATCACACCCATAAATTGATATTGCCTCTGATCATAGTCAGACCAACATTGCTACGACCCGTATTCGCACCGACAC" ?
Result: not fulfilled

* * *

Tested on: VchCAST RNA-guided transposition machinery (E. coli BL21(DE3) host, lacZ target)
procedureDetails: relative integration efficiency (T-RL orientation) vs wild-type transposon end (log2 (normalized fold change)); transposon end mutated: right end (5 bp flank + 75 bp right end); higher = more efficient transposition
The threshold is inclusive: relative integration efficiency (log2) of exactly -5 counts as 1; values below receive -1.

Recorded results for 4 sequences are shown here.
| primarySequence | group |
| --- | --- |
| ACATTTGTGGATACAACCATAAAATGATAATTACACCCATAAATGGATTATTATCACACCCAATTTAACTATAACGCTCTGATCATAGTCAGACCAACATTGCTACGACCCGTATTCGCACCGACAC | 1 |
| ACATTGGTTCATACAACCATAAAATGATAATTACACCCATAAATTCATAATTATCACACCCAATTTAACTATAACGCTCTGATCATAGTCAGACCAACATTGCTACGACCCGTATTCGCACCGACAC | -1 |
| ACATTTGTTGATACAACCATAAAATCATCATTACACCCATCAATTGATAATTATCCCACCCAATTTAACTATAACGCTCTGATCATAGTCAGACCAACATTGCTACGACCCGTATTCGCACCGACAC | 1 |
| ACATTAGTCGATACAACCATAAAATGATAATTACACCCATAAATTCATAATTATCACACCCAATTTAACTATAACGCTCTGATCATAGTCAGACCAACATTGCTACGACCCGTATTCGCACCGACAC | -1 |

Note: attention shifts to another entry.
Task: Reported relative integration efficiency (log2) reaches at least -5 for "ACATTTGTTGATACAACCATAAAATGATAATTACACCCATAAATTGATAATTATCACACCGTATAATTGATATTGCCTCTGATCATAGTCAGACCAACATTGCTACGACCCGTATTCGCACCGACAC" ?
Result: 1
